assayedTarget: Recombinant human cathepsin A (Homo sapiens)
Construct: Recombinant human cathepsin A (residues 29-480, with a C-terminal 10-His tag); 10-His (C); purchased R&D Systems 1049-SE
Sequence (P10619 29-312 limits assumed): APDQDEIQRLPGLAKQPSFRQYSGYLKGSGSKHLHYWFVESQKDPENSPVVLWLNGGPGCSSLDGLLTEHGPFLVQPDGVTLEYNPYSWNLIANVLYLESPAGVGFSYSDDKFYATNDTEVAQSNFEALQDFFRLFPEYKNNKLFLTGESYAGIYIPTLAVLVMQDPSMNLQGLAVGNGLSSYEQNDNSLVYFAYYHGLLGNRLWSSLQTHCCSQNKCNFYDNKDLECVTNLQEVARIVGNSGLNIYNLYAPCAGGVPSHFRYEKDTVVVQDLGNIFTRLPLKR
Sequence (P10619 327-480 limits assumed): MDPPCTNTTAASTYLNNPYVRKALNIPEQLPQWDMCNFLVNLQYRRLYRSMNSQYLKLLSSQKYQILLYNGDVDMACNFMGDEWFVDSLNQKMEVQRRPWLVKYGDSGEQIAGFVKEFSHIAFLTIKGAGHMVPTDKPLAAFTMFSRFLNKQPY
procedureDetails: Cathepsin A inhibitory activity
Type: biochemical
conditionDetails: read-out: Activity (2): Cathepsin A inhibitory activity (IC50 class)
pIC50: −log10 of the molar value.
So I've got a bunch of compounds here, and I need their pIC50 values.

Enquiry: Dear colleague, I am looking for the recorded pIC50 of the following compound: Cc1ccccc1[C@H](CC(=O)O)NC(=O)c1cc(OCc2ccccn2)n(-c2ccccc2F)n1 [Example 640]
Return: > 7.00

Enquiry: Dear colleague, I am looking for the recorded pIC50 of the following compound: Cc1ccccc1[C@H](CC(=O)O)NC(=O)c1cc(OC(C)C)n(-c2ccccc2F)n1 [Example 630]
Return: > 7.00

Enquiry: Dear colleague, I am looking for the recorded pIC50 of the following compound: COc1cc(C(=O)N[C@@H](CC(=O)O)c2cccc(C)c2)nn1-c1ccccc1F [Example 670]
Return: > 7.00

Enquiry: Dear colleague, I am looking for the recorded pIC50 of the following compound: Cc1ccccc1[C@H](CC(=O)O)NC(=O)c1cc(OC2CCC2)n(-c2ccccc2F)n1 [Example 648]
Return: > 7.00

Enquiry: Dear colleague, I am looking for the recorded pIC50 of the following compound: Cc1ccccc1[C@H](CC(=O)O)NC(=O)c1cc(OCCN2CCCC2=O)n(-c2ccccc2F)n1 [Example 639]
Return: > 7.00

Enquiry: Dear colleague, I am looking for the recorded pIC50 of the following compound: O=C(O)CC(NC(=O)c1cc(O)n(-c2cccc(Cl)c2F)n1)c1ccc(-c2ccc(F)cc2)cc1 (stereo not shown) [Example 590]
Return: 6.00 to 7.00

Enquiry: Dear colleague, I am looking for the recorded pIC50 of the following compound: Cc1ccccc1[C@H](CC(=O)O)NC(=O)c1cc(OCC2CCCCO2)n(-c2ccccc2F)n1 (stereo partly shown) [Example 653]
Return: > 7.00

Enquiry: Dear colleague, I am looking for the recorded pIC50 of the following compound: CCC(C)(O)COc1cc(C(=O)N[C@@H](CC(=O)O)c2ccccc2C)nn1-c1ccccc1F (stereo partly shown) [Example 750]
Return: > 7.00

Enquiry: Dear colleague, I am looking for the recorded pIC50 of the following compound: COc1cc(C(=O)NC(CC(=O)O)c2ccc(F)cc2)nn1-c1ccccc1F (stereo not shown) [Example 678]
Return: 6.00 to 7.00

Enquiry: Dear colleague, I am looking for the recorded pIC50 of the following compound: Cc1ccccc1[C@H](CC(=O)O)NC(=O)c1cc(OCC2CCCO2)n(-c2ccccc2F)n1 (stereo partly shown) [Example 642]
Return: > 7.00

Enquiry: Dear colleague, I am looking for the recorded pIC50 of the following compound: COc1cc(C(=O)N[C@@H](CC(=O)O)c2ccccc2)nn1-c1ccccc1F [Example 665]
Return: > 7.00

Enquiry: Dear colleague, I am looking for the recorded pIC50 of the following compound: Cc1ccc([C@H](CC(=O)O)NC(=O)c2cc(OCC(C)(O)C(C)C)n(-c3ccccc3F)n2)cc1 (stereo partly shown) [Example 787]
Return: > 7.00

Enquiry: Dear colleague, I am looking for the recorded pIC50 of the following compound: CCOc1cc(C(=O)N[C@@H](CC(=O)O)c2ccccc2Cl)nn1-c1ccccc1Cl [Example 737]
Return: > 7.00

Enquiry: Dear colleague, I am looking for the recorded pIC50 of the following compound: COc1ccc(C(F)(F)F)cc1C(CC(=O)O)NC(=O)c1cc(O)n(-c2ccccc2Cl)n1 (stereo not shown) [Example 560]
Return: 4.52 to 6.00

Enquiry: Dear colleague, I am looking for the recorded pIC50 of the following compound: CC(C)(C)[C@@](C)(O)COc1cc(C(=O)N[C@@H](CC(=O)O)c2cccc(F)c2)nn1-c1ccccc1F [Example 779]
Return: > 7.00

Enquiry: Dear colleague, I am looking for the recorded pIC50 of the following compound: CCOc1cc(C(=O)N[C@@H](CC(=O)O)c2ccc(C)cc2)nn1-c1ccccc1Cl [Example 736]
Return: > 7.00

Enquiry: Dear colleague, I am looking for the recorded pIC50 of the following compound: O=C(O)C[C@H](NC(=O)c1cc(OCC2CC2)n(-c2ccccc2F)n1)c1ccc(Cl)cc1Cl [Example 693]
Return: 6.00 to 7.00

Enquiry: Dear colleague, I am looking for the recorded pIC50 of the following compound: O=C(O)CC(NC(=O)c1cc(O)n(-c2ccccc2Cl)n1)c1ccc(-n2cncn2)cc1 (stereo not shown) [Example 557]
Return: 6.00 to 7.00

Enquiry: Dear colleague, I am looking for the recorded pIC50 of the following compound: COc1ccccc1[C@H](CC(=O)O)NC(=O)c1cc(OC[C@@](C)(O)C(C)C)n(-c2ccccc2F)n1 [Example 783]
Return: > 7.00

Enquiry: Dear colleague, I am looking for the recorded pIC50 of the following compound: O=C(O)CC(NC(=O)c1cc(O)n(C2CCCCC2)n1)c1ccc(-c2ccc(F)cc2)cc1 (stereo not shown) [Example 575]
Return: 4.52 to 6.00

Enquiry: Dear colleague, I am looking for the recorded pIC50 of the following compound: CCOc1cc(C(=O)NC(CC(=O)O)c2ccc(F)cc2C)nn1-c1ccccc1F (stereo not shown) [Example 718]
Return: > 7.00

Enquiry: Dear colleague, I am looking for the recorded pIC50 of the following compound: CC(C)(C)[C@@](C)(O)COc1cc(C(=O)N[C@@H](CC(=O)O)c2ccccc2Cl)nn1-c1ccccc1F [Example 790]
Return: > 7.00
